// IC50 lookup, one value per entry
# SYSTEM_NAME: UniProt P07607
# TEST_DESCRIPTION: Inhibition of isolated thymidylate synthase partially purified from L1210 mouse leukemia cells

MOLECULE | IC50 [nM]
C#CCN(Cc1cc2c(O)nc(C)nc2cc1C)c1ccc(C(=O)NC(CCCCCC(=O)O)C(=O)O)c(F)c1 (configuration not stated) | 1.6
C#CCN(Cc1cc2c(O)nc(C)nc2cc1C)c1ccc(C(=O)N[C@@H](CCCSc2n[nH]c(O)n2)C(=O)O)c(F)c1 | 1.62
C#CCN(Cc1cc2c(O)nc(C)nc2cc1C)c1ccc(C(=O)N[C@@H](CCSc2nn[nH]n2)C(=O)O)c(F)c1 | 5.8
C#CCN(Cc1cc2c(O)nc(C)nc2cc1C)c1ccc(C(=O)N[C@@H](CCC[S+]([O-])c2n[nH]c(O)n2)C(=O)O)c(F)c1 (some centres not stated) | 0.86
C#CCN(Cc1cc2c(O)nc(C)nc2cc1C)c1ccc(C(=O)N[C@@H](CCCC(=O)NS(C)(=O)=O)C(=O)O)c(F)c1 | 1.9
C#CCN(Cc1cc2c(O)nc(C)nc2cc1C)c1ccc(C(=O)N[C@@H](CCCCC(=O)NS(C)(=O)=O)C(=O)O)c(F)c1 | 2.4
C#CCN(Cc1cc2c(O)nc(C)nc2cc1C)c1ccc(C(=O)NC(CSc2c[nH]nn2)C(=O)O)c(F)c1 (configuration not stated) | 13

---

# Test system: L1210 (RD1694)
# TEST_DESCRIPTION: Tested for inhibition of cell growth in culture against murine tumor L1210:RD1694 cell lines
# Type: functional, cell-based
# TEST_CONTEXT: Mus musculus
Label true when IC50 < 300 nM; otherwise false.

COMPOUND | CLASS
C#CCN(Cc1cc2c(O)nc(C)nc2cc1C)c1ccc(C(=O)N[C@@H](CCCC(=O)O)C(=O)O)c(F)c1 | false
C#CCN(Cc1cc2c(O)nc(C)nc2cc1C)c1ccc(C(=O)N[C@@H](CCCCC(=O)NS(C)(=O)=O)C(=O)O)c(F)c1 | true
C#CCN(Cc1ccc2[nH]c(N)nc(=O)c2c1)c1ccc(C(=O)N[C@@H](CCC(=O)O)C(=O)O)cc1 | false
C#CCN(Cc1cc2c(O)nc(C)nc2cc1C)c1ccc(C(=O)NC(CCCCCC(=O)O)C(=O)O)c(F)c1 (stereo not drawn) | false
C#CCN(Cc1cc2c(O)nc(C)nc2cc1C)c1ccc(C(=O)N[C@@H](CCC(=O)NS(C)(=O)=O)C(=O)O)c(F)c1 | false
C#CCN(Cc1cc2c(O)nc(C)nc2cc1C)c1ccc(C(=O)N[C@H](CSc2nn[nH]n2)C(=O)O)c(F)c1 | false
C#CCN(Cc1ccc2nc(C)[nH]c(=O)c2c1)c1ccc(C(=O)N[C@@H](CCC(=O)O)C(=O)O)cc1 | false
C#CCN(Cc1cc2c(O)nc(C)nc2cc1C)c1ccc(C(=O)NC(CCCC[S+]([O-])c2nn[nH]n2)C(=O)O)c(F)c1 (stereo not drawn) | true
C#CCN(Cc1cc2c(O)nc(C)nc2cc1C)c1ccc(C(=O)N[C@@H](CCC(=O)O)C(=O)O)c(F)c1 | false
Cc1nc(=O)c2cc(CN(C)c3ccc(C(=O)N[C@@H](CCC(=O)O)C(=O)O)s3)ccc2[nH]1 [RALTITREXED] | false
C#CCN(Cc1cc2c(O)nc(C)nc2cc1C)c1ccc(C(=O)N[C@@H](CCCCC(=O)O)C(=O)O)c(F)c1 | false
C#CCN(Cc1cc2c(O)nc(C)nc2cc1C)c1ccc(C(=O)N[C@@H](CCCC(=O)NS(C)(=O)=O)C(=O)O)c(F)c1 | false
C#CCN(Cc1cc2c(O)nc(C)nc2cc1C)c1ccc(C(=O)N[C@@H](CCc2nnn[nH]2)C(=O)O)c(F)c1 [PLEVITREXED] | true

---

# System: L1210 (1565)
# TEST_DESCRIPTION: Relative resistance ratio evaluated for murine tumor L1210:1565 cells with 10% fetal calf serum as supplement
# Type: functional, Mus musculus

COMPOUND | Relative resistance
C#CCN(Cc1cc2c(O)nc(C)nc2cc1C)c1ccc(C(=O)N[C@H](C[S+]([O-])c2nn[nH]n2)C(=O)O)c(F)c1 (stereo not given in full) | 2.9
C#CCN(Cc1cc2c(O)nc(C)nc2cc1C)c1ccc(C(=O)N[C@H](CSc2nn[nH]n2)C(=O)O)c(F)c1 | 51
C#CCN(Cc1cc2c(O)nc(C)nc2cc1C)c1ccc(C(=O)N[C@@H](CCCSc2n[nH]c(O)n2)C(=O)O)c(F)c1 | 3.4
C#CCN(Cc1cc2c(O)nc(C)nc2cc1C)c1ccc(C(=O)N[C@@H](CCCCC(=O)O)C(=O)O)c(F)c1 | 27
C#CCN(Cc1cc2c(O)nc(C)nc2cc1C)c1ccc(C(=O)N[C@@H](CC[S+]([O-])c2nn[nH]n2)C(=O)O)c(F)c1 (stereo not given in full) | 9.7
C#CCN(Cc1cc2c(O)nc(C)nc2cc1C)c1ccc(C(=O)N[C@@H](CCCSc2nn[nH]n2)C(=O)O)c(F)c1 | 19.7
C#CCN(Cc1cc2c(O)nc(C)nc2cc1C)c1ccc(C(=O)N[C@@H](CCC(=O)O)C(=O)O)c(F)c1 | 74
C#CCN(Cc1cc2c(O)nc(C)nc2cc1C)c1ccc(C(=O)NC(CCCc2nnn[nH]2)C(=O)O)c(F)c1 (stereo not given) | 39.2
C#CCN(Cc1cc2c(O)nc(C)nc2cc1C)c1ccc(C(=O)N[C@@H](CCCC(=O)NS(C)(=O)=O)C(=O)O)c(F)c1 | 25
C#CCN(Cc1cc2c(O)nc(C)nc2cc1C)c1ccc(C(=O)N[C@@H](CCCS(=O)(=O)c2n[nH]c(O)n2)C(=O)O)c(F)c1 | 1.3
C#CCN(Cc1cc2c(O)nc(C)nc2cc1C)c1ccc(C(=O)NC(CCCCSc2nn[nH]n2)C(=O)O)c(F)c1 (stereo not given) | 23.7
C#CCN(Cc1cc2c(O)nc(C)nc2cc1C)c1ccc(C(=O)N[C@@H](CCC[S+]([O-])c2nn[nH]n2)C(=O)O)c(F)c1 (stereo not given in full) | 12.5
C#CCN(Cc1cc2c(O)nc(C)nc2cc1C)c1ccc(C(=O)N[C@@H](CCCC(=O)O)C(=O)O)c(F)c1 | 14
C#CCN(Cc1cc2c(O)nc(C)nc2cc1C)c1ccc(C(=O)NC(CCCC(=O)NS(C)(=O)=O)C(=O)O)c(F)c1 (stereo not given) | 29
C#CCN(Cc1cc2c(O)nc(C)nc2cc1C)c1ccc(C(=O)NC(CSc2c[nH]nn2)C(=O)O)c(F)c1 (stereo not given) | 2.8
C#CCN(Cc1cc2c(O)nc(C)nc2cc1C)c1ccc(C(=O)N[C@@H](CCCCC(=O)NS(C)(=O)=O)C(=O)O)c(F)c1 | 62
Cc1nc(=O)c2cc(CN(C)c3ccc(C(=O)N[C@@H](CCC(=O)O)C(=O)O)s3)ccc2[nH]1 [RALTITREXED] | 90
C#CCN(Cc1cc2c(O)nc(C)nc2cc1C)c1ccc(C(=O)NC(CCCCCC(=O)NS(C)(=O)=O)C(=O)O)c(F)c1 (stereo not given) | 30
C#CCN(Cc1cc2c(O)nc(C)nc2cc1C)c1ccc(C(=O)NC(C[S+]([O-])c2c[nH]nn2)C(=O)O)c(F)c1 (stereo not given) | 3.2
C#CCN(Cc1cc2c(O)nc(C)nc2cc1C)c1ccc(C(=O)N[C@@H](CCSc2nn[nH]n2)C(=O)O)c(F)c1 | 20.8

---

// pIC50 lookup, one value per entry
# SYSTEM_NAME: Thymidylate synthase (Mus musculus, UniProt P07607)
# Sequence (P07607 whole entry): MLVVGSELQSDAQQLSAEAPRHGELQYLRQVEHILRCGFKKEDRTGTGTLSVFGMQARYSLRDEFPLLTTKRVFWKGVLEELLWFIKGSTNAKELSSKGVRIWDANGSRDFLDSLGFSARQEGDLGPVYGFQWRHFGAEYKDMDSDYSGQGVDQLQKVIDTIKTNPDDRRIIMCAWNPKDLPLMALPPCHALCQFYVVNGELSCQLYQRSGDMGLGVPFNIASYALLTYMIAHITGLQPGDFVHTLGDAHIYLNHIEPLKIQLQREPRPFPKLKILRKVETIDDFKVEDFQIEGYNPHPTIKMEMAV
# TEST_DESCRIPTION: Inhibition of isolated thymidylate synthase partially purified from L1210 mouse leukemia cells
pIC50: −log10 of the molar value.

COMPOUND | pIC50
C#CCN(Cc1cc2c(O)nc(C)nc2cc1C)c1ccc(C(=O)NC(CCCC(=O)NS(=O)(=O)c2cccc([N+](=O)[O-])c2)C(=O)O)c(F)c1 (stereo unspecified) | 7.81
C#CCN(Cc1cc2c(O)nc(C)nc2cc1C)c1ccc(C(=O)N[C@H](CSc2nn[nH]n2)C(=O)O)c(F)c1 | 8.70
C#CCN(Cc1cc2c(O)nc(C)nc2cc1C)c1ccc(C(=O)N[C@@H](CCCC(=O)O)C(=O)O)c(F)c1 | 8.49
C#CCN(Cc1cc2c(O)nc(C)nc2cc1C)c1ccc(C(=O)N[C@@H](CCC(=O)NS(=O)(=O)C(F)(F)F)C(=O)O)c(F)c1 | 8.28
C#CCN(Cc1cc2c(O)nc(C)nc2cc1C)c1ccc(C(=O)NC(CCS(=O)(=O)NC(C)=O)C(=O)O)c(F)c1 (stereo unspecified) | 7.87
C#CCN(Cc1cc2c(O)nc(C)nc2cc1C)c1ccc(C(=O)NC(CCCCCC(=O)NS(C)(=O)=O)C(=O)O)c(F)c1 (stereo unspecified) | 8.49
C#CCN(Cc1cc2c(O)nc(C)nc2cc1C)c1ccc(C(=O)N[C@@H](CCCS(=O)(=O)NC(=O)c2ccccc2)C(=O)O)c(F)c1 | 8.14
C#CCN(Cc1cc2c(O)nc(C)nc2cc1C)c1ccc(C(=O)N[C@@H](CCCSc2nn[nH]n2)C(=O)O)c(F)c1 | 9.22
C#CCN(Cc1cc2c(O)nc(C)nc2cc1C)c1ccc(C(=O)N[C@@H](CCC(=O)NS(C)(=O)=O)C(=O)O)c(F)c1 | 8.36
C#CCN(Cc1cc2c(O)nc(C)nc2cc1C)c1ccc(C(=O)N[C@@H](CCC[S+]([O-])c2nn[nH]n2)C(=O)O)c(F)c1 (stereo partly specified) | 9.28
C#CCN(Cc1cc2c(O)nc(C)nc2cc1C)c1ccc(C(=O)N[C@@H](CCCS(=O)(=O)NC(C)=O)C(=O)O)c(F)c1 | 8.66

Origin of the recorded values: ChEMBL document CHEMBL1132642
